System: DU-145 prostate
Assay: NCI tumour cell line growth inhibition, 48 h
EXPERIMENTAL ENDPOINT: TGI

Cc1cc(N(CCCl)CCCl)ccc1/C=N/NC(=O)Cc1cc(=O)oc2cc(O)ccc12; > 100 µM
C#CCn1c(=O)c(Cl)cn(/C(=C/C(=O)OCC)C(=O)OCC)c1=O; 33 µM
COc1cc(OC)c(C(=O)/C=C/c2cccc(OC(C)=O)c2)cc1CC=C(C)C; 14.6 µM
Cc1cc2nc(N3C(=O)/C(=C/c4ccc(Cl)cc4)N=C3c3ccccc3)sc2cc1C; > 100 µM
Cc1nnc(-n2c(O)cc(=O)n(-c3ccccc3)c2=S)nc1/C=C/c1ccc(N(C)C)cc1; > 90.1 µM

Each of the following entries comes with a recorded value; kindly state TGI for each.
1. COc1ccc(-c2csc(NC(=O)c3cc(O)c(O)c(O)c3)n2)cc1
2. CSc1nc2c(=O)n(-c3ccccc3)c(=S)n(-c3ccccc3)c2s1
3. CCN1CCC(O)(c2ccc(Oc3ccc(C)cc3)cc2)C(C(=O)c2ccc(Oc3ccc(C)cc3)cc2)C1 (stereo unspecified)
4. NC1CC(=O)c2sccc21 (stereo unspecified)
5. Cc1ccc(Sc2sc(-c3ccccc3)nc2[P+](c2ccccc2)(c2ccccc2)c2ccccc2)cc1
6. CCOC(=O)CSc1[nH]c(NC(=S)Nc2ccccc2)c(C(N)=O)c1C(N)=O

Response:
1: > 33.3 µM; 2: > 100 µM; 3: 20.1 µM; 4: > 100 µM; 5: 1.37 µM; 6: > 10 µM

----------
For each of the compounds below, state its TGI.
System: RPMI-8226 leukemia
Assay: NCI tumour cell line growth inhibition, 48 h

Parameters: items (list). Returns: TGI for each item.
1. CC(C)Nc1ncc2cc(Oc3ccc(F)cc3F)c(=O)n(C)c2n1
2. CC1CCc2sc3[nH]c(=S)n(-c4ccccc4)c(=O)c3c2C1 (stereo not drawn)

Response:
1. > 25 µM
2. > 100 µM

----------
Tested on: CAKI-1 renal
Test: NCI tumour cell line growth inhibition, 48 h; in the data active = GI50 below about 0.43 µM; inactive = the rest
Use one of these outcomes when replying: yes (1) (active), no (0) (inactive)

N#C/C(=C\c1ccc(Br)cc1)n1nnc2ccccc21; yes (1)
OCC(O)C(O)C(O)/C=N/Nc1nc2ccccc2nc1-c1ccccc1 (centres undefined); no (0)

Query: Hello, I am checking results. What call was entered for `COc1cc(OC)c(C(=O)/C=C/c2cccc(OC(C)=O)c2)cc1CC=C(C)C` ?
Response: no (0)

Query: Please let me know the test result on file for O=C1CS/C(=N\S(=O)(=O)c2ccc(N3N=C4c5ccccc5CC4C3c3ccc(Cl)cc3)cc2)N1c1ccccc1 (centres undefined) .
Response: no (0)

----------
For each record, write down the corresponding TGI.
System: RXF 393 renal
Experiment: NCI tumour cell line growth inhibition, 48 h

CCCCCCC(C)OC(=O)/C=C(\CC(=O)OC(C)CCCCCC)C(=O)OC(C)CCCCCC (stereo not drawn); > 100 µM
CC(C)Nc1ncc2cc(Oc3ccc(F)cc3F)c(=O)n(C)c2n1; > 25 µM
O=[N+]([O-])c1ccc2nc3ccccc3cc2c1; > 100 µM

Provide each entry's TGI from the list below.
1. c1ccc2nc(CCC3CCCCN3)ccc2c1 (stereo not drawn)
2. COc1cc2c(cc1OCCCC(=O)Nc1cc(C(=O)NCCCN(C)C)n(C)n1)N=CC1CCCN1C2=O (stereo not drawn)
3. CCOP(=O)(OCC)C1=NC=CC=CC1n1c(-c2ccccc2)nn(CC)c1=O (stereo not drawn)
4. COc1ccc(/C=C/NC=O)cc1
5. Cc1nc(C(N)=S)sc1C(=O)C/C(=N/N)C(=O)Nc1ccc(Cl)cc1

Response:
1: > 100 µM; 2: > 75.6 µM; 3: > 100 µM; 4: > 100 µM; 5: > 100 µM
